assay: Kinetic solubility in aqueous buffer pH 7.4 by total chemiluminescent nitrogen determination (Analiza); settings: aqueous buffer, pH 7.4, aqueous buffer, kinetic from dmso stock
# maps each entry to its solubility kinetic
Express the result in µM but write the number alone.

Consider the following illustrative entries.
[[record]]
compound = "Cc1cc(C)nc(NS(=O)(=O)c2ccc(NC(=O)NC(=O)c3ccc(Cl)cc3Cl)cc2)n1"
readout_value = 7.1

[[record]]
compound = "Cc1cccc(-c2nn3c(c2-c2ccnc4ccc(C(N)=O)cc24)CCC3)n1"
readout_value = 249

[[record]]
compound = "CN(C)c1ccc2c(c1)Sc1cc(N(C)C)ccc1N2.CS(=O)(=O)O.CS(=O)(=O)O [TRx0237 (LMTX) mesylate]"
readout_value = 115


Below: the item to evaluate.
Enquiry: // returns reported solubility kinetic for input CCCCNc1ncc2c(-c3ccc(CN4CCN(C)CC4)cc3)cn([C@H]3CC[C@H](O)CC3)c2n1 [UNC2025C, reference compound]
Return: 43.4

====

assay: Kinetic solubility in aqueous buffer pH 7.4 by total chemiluminescent nitrogen determination (Analiza); conditions: aqueous buffer, pH 7.4, aqueous buffer, kinetic from dmso stock
Assay Endpoint: solubility kinetic (µM)
Express the result in µM but write the number alone.

[[record]]
compound = "Cc1cc(OCc2nnc(SC3CCCC3)n2-c2cccnc2)ccc1-c1ccc(S(C)(=O)=O)cc1"
assay_endpoint = "solubility kinetic"
unit_tag = "µM"
readout_value = 3.8


Below: the item to evaluate.
Enquiry: // returns reported solubility kinetic for input Cc1ccccc1C(=O)Nc1ccc(C(=O)N2CCCC(O)c3cc(Cl)ccc32)c(C)c1 (centres unmarked)
Return: 31.8

====

experiment: physchem; conditions: pH 7.4, aqueous buffer, kinetic from dmso stock
# binarize solubility kinetic: threshold 100 µM inclusive, high side criterion met, low side criterion not met

[[record]]
compound = "CC[C@H](C)[C@H](N)C(=O)NCCN1CCOCC1.Cl.Cl [LM11A-31 dihydrochloride]"
class_label = "criterion met"

[[record]]
compound = "CN(C)CC#Cc1ccc(OCCCc2sc(N3CCc4cccc(C(=O)Nc5nc6ccccc6s5)c4C3)nc2C(=O)O)c(F)c1"
class_label = "criterion not met"


Enquiry: # bool: solubility kinetic of Cc1ccc(S(=O)(=O)O)cc1.Nc1n[nH]cc1-c1cc(Cl)ccc1Oc1cc(F)c(S(=O)(=O)Nc2cscn2)cc1Cl >= 100 µM
Return: criterion not met

Enquiry: # bool: solubility kinetic of CCCN(CC1CC1)c1nc(C)nc(Nc2c(Cl)cc(Cl)cc2Cl)c1Cl.Cl >= 100 µM
Return: criterion not met

Enquiry: # bool: solubility kinetic of NC(=O)[C@@H]1CC[C@H](c2ccc(OCc3ccccc3F)cc2)N1 >= 100 µM
Return: criterion met

Enquiry: # bool: solubility kinetic of CC(=O)N1CCC(NC(=O)NC23CC4CC(CC(C4)C2)C3)CC1 >= 100 µM
Return: criterion met

Enquiry: # bool: solubility kinetic of CC(C)Nc1cc(-c2c[nH]c(C(=O)N[C@H](CO)c3cccc(Cl)c3)c2)c(Cl)cn1 >= 100 µM
Return: criterion not met

Enquiry: # bool: solubility kinetic of Clc1ccccc1C(c1ccccc1)(c1ccccc1)n1ccnc1 >= 100 µM
Return: criterion not met

Enquiry: # bool: solubility kinetic of C=Cc1c(C)c2cc3nc(cc4[nH]c(cc5nc(cc1[nH]2)C(C)=C5CCC(=O)O)c(CCC(=O)OC)c4C)[C@@]1(C)C3=CC=C(C(=O)OC)[C@H]1C(=O)OC >= 100 µM
Return: criterion met

Enquiry: # bool: solubility kinetic of Cc1cc(SCc2sc(-c3ccc(C(F)(F)F)c(F)c3)nc2C)ccc1OCC(=O)O >= 100 µM
Return: criterion met

====

# maps each entry to its 2. Nuclear Area (% Control)
system: BV2 (mouse microglia) cell line; assay: pHrodo-myelin phagocytosis/cell viability high content imaging assay: viability (cell count, nuclear area, nuclear intensity); details: BV2 cells, 10 uM compound, 48 hours treatment
Express the result in % Control but write the number alone.

[[record]]
compound = "Nc1ncnc2c1nc(Sc1ccc(Cl)cc1)n2[C@@H]1O[C@@H]2COP(=O)([O-])O[C@H]2[C@H]1O.[Na+] [UNC10302890A]"
assay_endpoint = "2. Nuclear Area (% Control)"
readout_value = 106.8

[[record]]
compound = "Cc1cc2c(cc1C(=O)c1ccc(C(=O)O)cc1)C(C)(C)CCC2(C)C [UNC10302892A]"
assay_endpoint = "2. Nuclear Area (% Control)"
readout_value = 107.4

[[record]]
compound = "CCCCNc1ncc2c(-c3ccc(CN4CCN(C)CC4)cc3)cn([C@H]3CC[C@H](O)CC3)c2n1 [UNC2025C, reference compound]"
assay_endpoint = "2. Nuclear Area (% Control)"
readout_value = 101.1

[[record]]
compound = "CCOC(=O)N1c2ccc(C(F)(F)F)cc2[C@@H](N(Cc2cc(C(F)(F)F)cc(C(F)(F)F)c2)C(=O)OC)C[C@H]1CC [UNC10302851A]"
assay_endpoint = "2. Nuclear Area (% Control)"
readout_value = 104.2


Enquiry: // returns reported 2. Nuclear Area (% Control) for input COc1ccc(CCN2CCN(CCCc3ccccc3)CC2)cc1OC.Cl.Cl [UNC10302848A]
Return: 105.5

Enquiry: // returns reported 2. Nuclear Area (% Control) for input CNC(=O)[C@H](Cc1c[nH]c2ccccc12)NC(=O)[C@@H](CC(=O)NO)CC(C)C [UNC10302858A]
Return: 102.8

Enquiry: // returns reported 2. Nuclear Area (% Control) for input CC(=O)N1CCN(c2ccc(OC[C@H]3CO[C@](Cn4ccnc4)(c4ccc(Cl)cc4Cl)O3)cc2)CC1 [UNC10100724A]
Return: 103.8

Enquiry: // returns reported 2. Nuclear Area (% Control) for input Cc1cc(NC(=O)Nc2ccccc2)n(-c2ccccc2)n1 [UNC10302880A]
Return: 104.5

Enquiry: // returns reported 2. Nuclear Area (% Control) for input c1ccc(-c2nn3c(c2-c2ccnc4cc(OCCN5CCOCC5)ccc24)CCC3)nc1 [UNC10302849A]
Return: 109.6

====

# maps each entry to its log10 of solubility kinetic
test: Kinetic solubility in aqueous buffer pH 7.4 by total chemiluminescent nitrogen determination (Analiza); conditions: aqueous buffer, pH 7.4, aqueous buffer, kinetic from dmso stock
The base-10 logarithm of solubility kinetic, taken with solubility kinetic in µM, is what appears here.

Consider the following illustrative entries.
[[record]]
compound = "COc1cc(/C=C/c2ccc(NC(=O)/C=C/c3cc(OC)c(OC)c(OC)c3)cc2)cc(OC)c1 [STAT3-IN-3]"
readout_value = 0.69

[[record]]
compound = "CCN(CC)c1ccc(/C=N/NC(=O)c2ccc(O)cc2)cc1 [DY131]"
readout_value = 0.65

[[record]]
compound = "O=C(N/N=C/c1ccc(Cl)cc1)c1ccccc1 [Compound 1e]"
readout_value = 1.58

[[record]]
compound = "Cc1cnc(Nc2ccc(F)cc2Cl)nc1-c1c[nH]c(C(=O)N[C@H](CO)c2cccc(Cl)c2)c1 [Vertex 11e]"
readout_value = 0.15

[[record]]
compound = "CN(C)CC[C@H](CSc1ccccc1)Nc1ccc(S(=O)(=O)NC(=O)c2ccc(N3CCN(Cc4ccccc4-c4ccc(Cl)cc4)CC3)cc2)cc1[N+](=O)[O-] [ABT-737]"
readout_value = -0.05


Enquiry: // returns reported log10 of solubility kinetic for input O=C(Nc1c[nH]nc1-c1nc2ccc(CN3CCOCC3)cc2[nH]1)NC1CC1 [AT9283]
Return: 2.16

Enquiry: // returns reported log10 of solubility kinetic for input Nc1ncnc2c1nc(Br)n2[C@@H]1O[C@@H]2COP(=O)([O-])O[C@H]2[C@H]1O.[Na+] [8-Bromo-cAMP (sodium salt)]
Return: 2.22

Enquiry: // returns reported log10 of solubility kinetic for input O=S(=O)(c1ccccc1)N(CC(F)(F)F)c1ccc(C(O)(C(F)(F)F)C(F)(F)F)cc1 [T 0901317]
Return: 1.60

Enquiry: // returns reported log10 of solubility kinetic for input COc1cc(C(=O)NS(=O)(=O)c2ccccc2C)ccc1Cc1cn(C)c2ccc(NC(=O)OC3CCCC3)cc12 [Zafirlukast]
Return: 2.11

Enquiry: // returns reported log10 of solubility kinetic for input CCOC(=O)N1CCC(Nc2c(NCCN3CCN(c4cccc(C(F)(F)F)c4)CC3)c(=O)c2=O)CC1 [Squarunkin A]
Return: -0.15

====

# maps each entry to its 2. Nuclear Area (% Control)
test system: BV2 (mouse microglia) cell line; assay: pHrodo-myelin phagocytosis/cell viability high content imaging assay: viability (cell count, nuclear area, nuclear intensity); details: BV2 cells, 10 uM compound, 48 hours treatment
Express the result in % Control but write the number alone.

[[record]]
compound = "C[C@]12C=CC(=O)C=C1CC[C@@H]1[C@@H]2[C@@H](O)C[C@@]2(C)[C@H]1CC[C@]2(O)C(=O)CO [UNC10240227A]"
assay_endpoint = "2. Nuclear Area (% Control)"
unit_tag = "% Control"
readout_value = 102.9

[[record]]
compound = "CCOC(=O)c1sc(NC(=O)c2ccco2)c(SC#N)c1C [UNC10302907A]"
assay_endpoint = "2. Nuclear Area (% Control)"
unit_tag = "% Control"
readout_value = 107.8

[[record]]
compound = "CCC(=C(c1ccc(O)cc1)c1ccc(OCCN(C)C)cc1)c1ccccc1 [UNC10302895A]"
assay_endpoint = "2. Nuclear Area (% Control)"
unit_tag = "% Control"
readout_value = 103.3


Below: the item to evaluate.
Enquiry: // returns reported 2. Nuclear Area (% Control) for input Cc1cc2c(cc1C1(c3ccc(C(=O)O)cn3)CC1)C(C)(C)CCC2(C)C [UNC10302904A]
Return: 111.9
